Biological target: DRB1*15:01 (Homo sapiens, UniProt P01903+P01911)
Construct: purchased ProImmune
Test: REVEAL HLA-Peptide binding assay (ProImmune)
Conditions: time 0 (H0); score relative to high-affinity control peptide, percentage of the control signal
Method: To test the designs, we synthesized twenty overlapping 15-mer peptides containing the introduced mutations and their wild-type counterparts. […] The affinity of these peptides to the three HLA alleles was measured at time zero and after 24 hours (Methods, Supplementary S3 and S4 Tables). […] Overall, the measured and predicted immunogenicity of the tested peptides correlated well with r = 0.76 (CI95 = [0.48, 0.91], t = 4.885, df = 17, p-value = 1.4e-4; Fig 5A). […]
Criterion: DRB1*15:01 strictly less than 5%. Met: MET. Not met: NOT MET.

Take a look at these entries with their results.
Monomer Sequence | Target Or System | Assigned Category
LRIHPQSWVHQIALRM [WT-4, wild-type peptide of Factor VIII C2 domain, reference compound] | DRB1*15:01 (Homo sapiens, UniProt P01903+P01911) | NOT MET
LTRYLKIHPQSWEHQ [Design M-9, peptide covering R2326K, V2333E] | DRB1*15:01 (Homo sapiens, UniProt P01903+P01911) | NOT MET
FTRYLRIHPQSWVHH [Design M-13, peptide covering L2321F, Q2335H] | DRB1*15:01 (Homo sapiens, UniProt P01903+P01911) | NOT MET
VNSLDPPLTTRYLRI [Design M-2, peptide covering L2321T] | DRB1*15:01 (Homo sapiens, UniProt P01903+P01911) | MET
LTRHLRIHPQSWEHQ [Design M-8, peptide covering Y2324H, V2333E] | DRB1*15:01 (Homo sapiens, UniProt P01903+P01911) | NOT MET

Lab note: next sequence to report on.
Below 5% on DRB1*15:01? Entry VNSLDPPLFTRYLRI [Design M-1, peptide covering L2321F]
MET
